Test system: L1210 leukemia ip in BDF1 mice, survival T/C
Test: NCI In Vivo Anticancer Drug Screen. Data for tumor model L1210 Leukemia (intraperitoneal) in B6D2F1 (BDF1) mice
Conditions: endpoint: mean survival time; dose: 100.0 mg/kg/injection; schedule: Q04DX003 (ip); vehicle: Klucel (hydroxypropylcellulose) (HPC); higher = longer survival
Inconclusive results and toxic doses are left out.
In this section we review reported T/C values for a set of molecules.

MOLECULE | T/C
Clc1ccc2c(c1)C(Nc1cc3c4ccccc4ccc3c3ccccc13)c1cc(Cl)cc(Cl)c1-2 (stereo not given) | 90 % of control
COc1ccccc1C(O)(c1ccccc1)c1ccccc1OC | 92 % of control

# input What measured T/C goes with `COc1ccc(C(=O)NC(=S)Nc2ccc(I)cc2)cc1` ?
# output 89 % of control

# input Consider the molecule shown here: `CCCCN(CCCC)CP(=S)(CN(CCCC)CCCC)CN(CCCC)CCCC` What is its recorded T/C?
# output 104 % of control

# input Recorded T/C for `CC(C)CCCCCc1ccc(OCCOc2ccc(C(=O)Nc3ccc(S(=O)(=O)F)cc3N)cc2)cc1` , please?
# output 98 % of control

---

Test system: L1210 leukemia ip in BDF1 mice, survival T/C
Assay: NCI In Vivo Anticancer Drug Screen. Data for tumor model L1210 Leukemia (intraperitoneal) in B6D2F1 (BDF1) mice
Settings: endpoint: mean survival time; dose: 100.0 mg/kg/injection; schedule: Q01DX001 (ip); vehicle: Klucel (hydroxypropylcellulose) (HPC); higher = longer survival
Toxic doses and inconclusive results are not listed.
Overview of recorded T/C for various compounds

// solved cases for T/C follow
COMPOUND | EXPERIMENTAL_RESULT
CCOC(=S)c1ccc(S(=O)(=O)Nc2cccc3ccccc23)cc1 | 97 % of control
O=C(Nc1ncccc1[N+](=O)[O-])C(Cl)(Cl)Cl | 101 % of control
Cc1cc(C)nc(NC(=O)Nc2cccc(C(F)(F)F)c2)c1 | 102 % of control
Cc1nc(N)[nH]c(=O)c1CCCC#N | 104 % of control
COC(=O)c1ccc(Cl)cc1OCC(=O)Nc1ccccc1 | 97 % of control

Now for another entry.
# input Requested field: T/C. Item: `O=c1[nH]c(C(F)(F)F)c(CCc2ccccc2)c(=O)[nH]1`
# output 103 % of control

---

Measured T/C, listed per entry for reference.
Tested on: L1210 leukemia ip in BDF1 mice, survival T/C
Assay: NCI In Vivo Anticancer Drug Screen. Data for tumor model L1210 Leukemia (intraperitoneal) in B6D2F1 (BDF1) mice
Details: endpoint: mean survival time; dose: 400.0 mg/kg/injection; schedule: Q01DX001 (ip); vehicle: saline with Tween-80; higher = longer survival
Inconclusive results and toxic doses are left out.

Some compounds with known T/C results, for comparison:
COMPOUND | SYSTEM_UNDER_TEST | EXPERIMENTAL_RESULT
CN(C)CCN=Cc1[nH]c(=S)[nH]c(=O)c1CCc1ccccc1 | L1210 leukemia ip in BDF1 mice, survival T/C | 95 % of control
CSc1ncnc2c1ncn2-n1c(C)ccc1C | L1210 leukemia ip in BDF1 mice, survival T/C | 93 % of control
CC(=O)NC1C(OCc2ccccc2)OC2COC(C)(C)OC2C1O (configuration not stated) | L1210 leukemia ip in BDF1 mice, survival T/C | 110 % of control
CCOC(=O)c1ccc(NC(=O)Nc2cc(OC)c(Cl)cc2OC)cc1 | L1210 leukemia ip in BDF1 mice, survival T/C | 88 % of control
CNC(=O)CCC(NS(=O)(=O)c1ccc(C)cc1)C(=O)O (configuration not stated) | L1210 leukemia ip in BDF1 mice, survival T/C | 97 % of control
O=C(Nc1ccc(Cl)cc1)O/N=C/c1ccccn1 | L1210 leukemia ip in BDF1 mice, survival T/C | 101 % of control

We now examine a further compound.
# input Requested read-out T/C, target or system L1210 leukemia ip in BDF1 mice, survival T/C, entry CCCCCCCCCCCC(C1CCC(C)CC1)C1CCC(C)CC1 (configuration not stated)
# output 89 % of control

---

Test system: L1210 leukemia ip in BDF1 mice, survival T/C
Test: NCI In Vivo Anticancer Drug Screen. Data for tumor model L1210 Leukemia (intraperitoneal) in B6D2F1 (BDF1) mice
Settings: endpoint: mean survival time; dose: 12.5 mg/kg/injection; schedule: Q01DX009 (ip); vehicle: saline with Tween-80
Toxic doses and inconclusive results are not listed. Cut-off read from the data, not from the text of the source: active = T/C of 150% or more; inactive = T/C below 125%.
Answer with one of the outcomes class 1 = active, class 0 = inactive

COMPOUND | LABEL_VALUE
COc1cccnc1/C=N/NC(N)=S | class 1
c1cc(Nc2ccncc2)ccn1 | class 0
c1ccc(C[n+]2ccc3ccccc3c2)cc1 | class 0
CC(C)C(CN=C(N)N)c1cccc2ccccc12 (stereo unspecified) | class 0
NC(=S)N=Nc1c(O)[nH]c(=O)[nH]c1=O | class 0

# input Short answer needed: outcome of this test for N#CC1(C#N)C2C=CC(C3C(Cl)C=CC32)C1(C#N)C#N (stereo unspecified) ?
# output class 0

---

Tested on: L1210 leukemia ip in BDF1 mice, survival T/C
Assay: NCI In Vivo Anticancer Drug Screen. Data for tumor model L1210 Leukemia (intraperitoneal) in B6D2F1 (BDF1) mice
Conditions: endpoint: mean survival time; dose: 400.0 mg/kg/injection; schedule: Q01DX001 (ip); vehicle: other; higher = longer survival
Inconclusive results and toxic doses are left out.
Some compounds, each annotated with its measured T/C.

Look over these answered cases.
COMPOUND | T/C
COC(=O)c1c(C)cc(OC(=O)c2c(C)cc(OC)c(C)c2OC)c(C)c1O | 92 % of control
Nc1nc(N)[n+]([O-])c(N)c1NCO | 94 % of control
COc1cc(N(CCCl)CCCl)ccc1NC(=O)c1ccccc1 | 109 % of control
COc1cccc(C(=O)O)c1[N+](=O)[O-] | 97 % of control
ICc1ccnc2ccccc12 | 100 % of control

# input So what's the measured T/C for this one? CC(=O)OC1COC(n2cnc3c(=S)nc[nH]c32)C(OC(C)=O)C1OC(C)=O (stereo not given)
# output 96 % of control

# input Any idea what T/C was measured for COC(=O)C(O)(C#CC(C)C)c1ccccc1 (stereo not given) ?
# output 94 % of control

# input Request the reported T/C associated with `CC(C)CNC(=O)c1cccc(-c2ccccc2C(=O)NCC(C)C)c1`
# output 96 % of control

# input T/C lookup needed for `NC(=O)N=Nc1ccccc1` , thanks.
# output 98 % of control

# input Any idea what T/C was measured for `O=c1ccc2ccccc2n1Cc1ccc2ccccc2n1` ?
# output 94 % of control

---

System: L1210 leukemia ip in BDF1 mice, survival T/C
Assay: NCI In Vivo Anticancer Drug Screen. Data for tumor model L1210 Leukemia (intraperitoneal) in B6D2F1 (BDF1) mice
Settings: endpoint: mean survival time; dose: 12.5 mg/kg/injection; schedule: Q04DX003 (ip); vehicle: saline; higher = longer survival
Inconclusive results and toxic doses are left out.
Listed compounds paired with reported T/C

COMPOUND | EXPERIMENTAL_RESULT
NNC(=O)C1CC1 | 101 % of control
Cn1c(=O)c2ccc(C(=O)O)cc2c(=O)n1C | 97 % of control
CCCCCCCCCCCCNC(=O)C[n+]1cccc(C(=O)N(CC)CC)c1 | 92 % of control
CCc1cc2c(cc1C(=O)CBr)C(C)(C)CCC2(C)C | 100 % of control
O=c1ccc2ccccc2n1Cc1ccc2ccccc2n1 | 96 % of control

# input Report T/C for `Cc1nc(N)nc(N)c1-c1ccc(Cl)c(Cl)c1` tested on L1210 leukemia ip in BDF1 mice, survival T/C.
# output 95 % of control

# input Write down the reported T/C of `CN(C)CCOCCOC(=O)N1c2ccccc2Sc2ccccc21` , test system: L1210 leukemia ip in BDF1 mice, survival T/C.
# output 105 % of control

# input Quick check: T/C on L1210 leukemia ip in BDF1 mice, survival T/C, item `NCC(c1ccccc1)c1ccccc1` ?
# output 98 % of control

# input Give L1210 leukemia ip in BDF1 mice, survival T/C T/C for `C[n+]1ccc2ccccc2c1CCCc1nccc2ccccc12`
# output 100 % of control

# input Notebook entry, L1210 leukemia ip in BDF1 mice, survival T/C assay: T/C of CCCCCCCCCCCC[N+](C)(C)C (tested in a mixture with another compound) = ?
# output 95 % of control

---

Recorded T/C values for a group of molecules are listed next.
System: L1210 leukemia ip in BDF1 mice, survival T/C
Test: NCI In Vivo Anticancer Drug Screen. Data for tumor model L1210 Leukemia (intraperitoneal) in B6D2F1 (BDF1) mice
Settings: endpoint: mean survival time; dose: 50.0 mg/kg/injection; schedule: Q01DX009 (ip); vehicle: Klucel (hydroxypropylcellulose) (HPC); higher = longer survival
Method: The antitumor activity of compounds was measured in mice bearing transplantable tumors. Survival or tumor size were measured and the results are expressed as the measurement made in the treated group (T) divided by the measurement made in the vehicle treated control group (C). The tumor model used in this assay is L1210 Leukemia (intraperitoneal) in B6D2F1 (BDF1) mice
Toxic doses and inconclusive results are not listed.

Some molecules with known T/C results, for comparison:
MOLECULE | T/C
CC(=O)OCC(OC(C)=O)C(OC(C)=O)C(C#N)OC(C)=O (stereo unspecified) | 102 % of control
COc1cc2c(cc1OC)C13CCN4CC5=CCOC6CC(=O)N2C1C6C5CC43 (stereo unspecified) (tested in a mixture with another compound) | 91 % of control
CCc1ccc(NC(=O)c2ccco2)cc1 | 96 % of control
C=CCOCC(O)CN(CCC(C)C)CCC(C)C (stereo unspecified) | 97 % of control
CC(C)(C)C(=O)OCn1cnc2c(=N)n(O)cnc21 | 103 % of control

--- query ---
# input Requested field: T/C. Item: `O=C(NCCCN1CCOCC1)C(Oc1ccccc1)Oc1ccccc1`
# output 89 % of control

Taken from PubChem BioAssay AID248.
